- TEST_NAME: PK s.c. in healthy and adenine/high-phosphate-diet (uremic) rats
- Type: in vivo
- REPORTED_CONDITIONS: male, Sprague-Dawley, rat, serum, sc, 10 mg/kg, 10 mg/kg s.c., Uremic; read-out: AUC0-360 (converted)
- Description: For many drugs, the PK profile depends on the patient’s renal status. Therefore, (OEG2)2-IP4 PK profile was also determined in an adenine and high-phosphate-diet-induced rat model of uremia, in which the compound was administered after serum creatinine levels had increased by fourfold relative to baseline (Fig. 4g, h). […] Similar results were observed following s.c. administration (Supplementary Table 5). […]
REPORTED_PROPERTY: AUC(0-t)

Record summary for COCCOCCO[C@@H]1[C@@H](OP(=O)(O)O)[C@H](OCCOCCOC)[C@@H](OP(=O)(O)O)[C@@H](OP(=O)(O)O)[C@H]1OP(=O)(O)O : reported AUC(0-t) = 31.8 µM·h

Values compiled from paper PMC7002685.
